The origin of these recorded values is patent US11274083B2.

System: Digitaria sanguinalis
procedureSummary: Herbicidal action post-emergence, greenhouse pot test
Format: in vivo
testSettings: application rate 20 g/ha
metric: Digitaria sanguinalis (Efficacy in %)
# number only, unit % dropped from output

>>> reportedvalue("COC(=O)C1(OC(=O)C(C)Sc2cc(-n3c(=O)cc(C(F)(F)F)n(C)c3=O)c(F)cc2Cl)CC1 (stereo not drawn)")
100
>>> reportedvalue("CC(Sc1cc(-n2c(=O)cc(C(F)(F)F)n(C)c2=O)c(F)cc1Cl)C(=O)OCCC(=O)N(C)C (stereo not drawn)")
100
>>> reportedvalue("CCC(C)C(Sc1cc(-n2c(=O)cc(C(F)(F)F)n(C)c2=O)c(F)cc1Cl)C(=O)OCCC(=O)OC (stereo not drawn)")
80

Which Digitaria sanguinalis (Efficacy in %) is listed for CC(Sc1cc(-n2c(=O)cc(C(F)(F)F)n(C)c2=O)c(F)cc1Cl)C(=O)OCC(=O)OCc1ccccc1 (stereo not drawn) ?
100

Which Digitaria sanguinalis (Efficacy in %) is listed for CCCOC(=O)CCOC(=O)C(CC)Sc1cc(-n2c(=O)cc(C(F)(F)F)n(C)c2=O)c(F)cc1Cl (stereo not drawn) ?
100

Which Digitaria sanguinalis (Efficacy in %) is listed for CCC(Sc1cc(-n2c(=O)cc(C(F)(F)F)n(C)c2=O)c(F)cc1Cl)C(=O)OCCC(=O)OCc1ccccc1 (stereo not drawn) ?
80

Which Digitaria sanguinalis (Efficacy in %) is listed for CCOC(=O)C1(COC(=O)C(C)Sc2cc(-n3c(=O)cc(C(F)(F)F)n(C)c3=O)c(F)cc2Cl)CCOCC1 (stereo not drawn) ?
100

Which Digitaria sanguinalis (Efficacy in %) is listed for CCCCOC(=O)COC(=O)C(C)Sc1cc(-n2c(=O)cc(C(F)(F)F)n(C)c2=O)c(F)cc1Cl (stereo not drawn) ?
90
